Tested on: HCT-116 colon
run.description: NCI-60 one-dose screen, 48 h (100 = growth as untreated, 0 = no growth, -100 = all killed)
condition.info: 10 µM unless noted
Compounds without any hit were thinned out: in the full panel of roughly 83,000, 20% have a hit.
Kind request: treat 20% as inclusive, so growth at 20% or higher is criterion met, anything lower is criterion not met.

compound	class.assignment
O=S1(=O)NCCCN1CCNc1nccc(-c2c(-c3cccc(O)c3)nc3sccn23)n1	criterion met
CN1C(=O)N(C)C2C1NN=c1s/c(=C\c3ccc(Br)cc3)c(=O)n12 (configuration not stated)	criterion met
Nc1c(N)c2ccccc2c2ccccc12	criterion met

Data request: Record CCOC(=O)c1cc(N)nc2ccccc12 ; criterion: growth no lower than 20%. Met?
Data returned: criterion met

Data request: Determine whether this compound has growth no lower than 20%: CN(C)CCCN1c2ccccc2CCc2ccccc21
Data returned: criterion met

Data request: Has CC1CCN(CCCCCOc2ccc3oc4ccc(Cl)cc4c(=O)c3c2)CC1 a recorded growth greater than or equal to 20%?
Data returned: criterion met

Data request: Is the recorded value of growth equal to or greater than 20% for this compound? COc1cc2c(c(OC)c1O)C(=O)C(OC)C(c1ccc(O)c(O)c1)O2 (configuration not stated)
Data returned: criterion not met

Data request: Test whether the compound O=C(O)c1ccccc1Oc1cc(-c2ccco2)nc(OCCN2CCOCC2)n1 records growth of 20% or higher.
Data returned: criterion met

Data request: Check the entry O=C(c1ccc(OCCN2CCCCC2)cc1)c1c(-c2ccc(O)cc2)sc2cc(O)ccc12 : does growth equal or exceed 20%?
Data returned: criterion met

Data request: Does the compound CCOC(=O)Cc1cc(Br)c(OCc2ccccc2)c(Br)c1 have recorded growth that is 20% or more?
Data returned: criterion met

Data request: State whether the measured growth reaches 20%, counting equality as reaching it, for C=CCOC(=O)C1=C(C)NC2=C(C(=O)CC(C)(C)C2)C1c1ccc(OC)cc1 (configuration not stated)
Data returned: criterion met

---

Test system: RXF 393 renal
run.description: NCI-60 one-dose screen, 48 h (100 = growth as untreated, 0 = no growth, -100 = all killed)
condition.info: 10 µM unless noted
The panel holds about 83,000 compounds, 20% with a hit somewhere; the sample as a whole holds those more often.
quantity.measured: growth (%)
Please reply with the bare figure in % and do not write the unit itself.

molecule	growth [%]
CC(C)(C)[Si](C)(C)OC1[C@@H](O[Si](C)(C)C(C)(C)C)[C@@H](CNC(=O)NC(=O)NC(=O)CCl)O[C@H]1n1cnc2c(NC(=O)Nc3ccccc3)ncnc21 (stereo partly specified)	21.9

// moving on: another record for growth
Data request: Value lookup for growth; key = COc1cc(C2CC(c3ccccc3)=NN2C=O)ccc1Oc1nc2c(c(=O)n(C)c(=O)n2C)n1C (stereo unspecified)
Data returned: 90.9

---

The entries below come with measured growth values attached.
Tested on: MOLT-4 leukemia
run.description: NCI-60 one-dose screen, 48 h (100 = growth as untreated, 0 = no growth, -100 = all killed)
condition.info: 10 µM unless noted
This is part of a sample that, as a whole, favours compounds with a hit. Of some 83,000 tested, about 20% had one in any assay.
Give the quantity in %, number only.

Answered examples (5):
compound	growth, %
CN1C2CCC1/C(=C\c1ccc(Cl)cc1)C(=O)/C2=C/c1ccc(Cl)cc1	16.4
COc1ccc2nc3ccccc3c(NCc3ccc(Cl)cc3)c2c1	-8.25
CNCCCn1c2c(c3ccc(Cl)cc3c1=O)C(=O)c1cc(OC)cnc1-2	-29.9
COc1cnc2c(c1)C(=O)c1c-2n(CCCN2CCCC2)c(=O)c2cc(Cl)ccc12	-24.4
N/C(=N\OC(=O)c1ccccc1)C(C(=O)NOC(=O)c1ccccc1)C1CCCCC1 (centres undefined)	55.9

Data request: Any idea what growth was measured for CC(NC(=O)c1ccccc1)C(=O)Nc1ccccc1 (centres undefined) ?
Data returned: 101

Data request: Quick check: growth of O=C(NCCN1CCCCC1)n1cc(-c2ccncc2)c(-c2ccc(Cl)c(O)c2)n1 ?
Data returned: 88.2

Data request: What value of measured growth is listed for O=C(O)C(CCc1ccccc1)NCc1ccccc1 (centres undefined) ?
Data returned: 108

Data request: Field request: growth | item: CCCCCCCCCCCCNC(=O)N[C@H](C(=O)N[C@H]1/C=C/CCNC(=O)/C=C/[C@H](C)NC1=O)C(C)C
Data returned: -29

---

Test system: SF-295 CNS
run.description: NCI-60 one-dose screen, 48 h
condition.info: 10 µM unless noted
Compounds without any hit were thinned out: in the full panel of roughly 83,000, 20% have a hit. Activity calls are given as the source filed them. The calls were made as follows: active = growth percent below 10; inactive = the rest.
// classify into 1 (yes) (active), 0 (no) (inactive)

Examples from the recorded data:
compound	target.or.test.system	class.assignment
CC(C)CCC(=O)[C@@H](C)[C@H]1[C@@H](OC2OCC(O)C(O)C2NS(C)(=O)=O)C[C@H]2[C@@H]3CC=C4C[C@@H](O)CC[C@]4(C)[C@H]3CC[C@]12C (stereo partly drawn)	SF-295 CNS	1 (yes)
CCCCCCCC/C=C\CCCCCCCC(=O)OCCCCCC	SF-295 CNS	0 (no)

Data request: Check the results log: what was the call for O=C(c1ccccc1)C1OC1C(=O)c1ccccc1 (stereo not drawn) ?
Data returned: 0 (no)

---

System: MALME-3M melanoma
run.description: NCI-60 one-dose screen, 48 h
condition.info: 10 µM unless noted
About 83,000 compounds went through this panel and 20% of them were active in at least one assay; those are over-represented in the sample as a whole. Calls of active or inactive are those of the source. The calls were made as follows: active = growth percent below 10; inactive = the rest.
Choose one outcome from this list and give only that: true for active, false for inactive

For orientation, consider the following solved cases.
compound	class.assignment
CCOC(OCC)c1cnc2nc(NC(C)=O)[nH]c(=O)c2n1	false
COc1cc(NCC(O)CN(CC(C)C)CC(C)C)c2ncccc2c1 (stereo not drawn)	false
O=[N+]([O-])c1ccc(N/N=C\c2ccc(O)cc2O)nc1	false
CCOC(=O)c1cc(N)nc2ccccc12	false
Oc1ccc(-c2nc3ccccc3s2)cc1CN(Cc1ccccn1)Cc1ccccn1	true

Data request: In this assay, the call recorded for ClCCn1cnc2c(SCc3ccccc3Cl)ncnc21 was what?
Data returned: false

Data request: Could you kindly confirm the outcome this assay logged for COc1ccc2c(c1)N(Cc1ccc(Cl)cc1)CCC2N1CCCC1=O (stereo not drawn) ?
Data returned: false

Data request: # fetch the recorded call for C=CCCCCOc1cccc(/C=C2\N=C3SCCCN3C2=O)c1 here
Data returned: false

Data request: Tell me the assay call for COc1cc([N+](=O)[O-])cc(OC)c1OC please.
Data returned: false

Data request: For C#Cc1cccc(Nc2nc3cc([N+](=O)[O-])ccc3nc2Nc2ccc(O)cc2)c1 , which call appears in the assay record?
Data returned: false

Data request: Status in this test for O=C(O)C(CCc1ccccc1)NCc1ccccc1 (stereo not drawn) ?
Data returned: false

Data request: Dear all, I need the recorded test outcome for O=[N+]([O-])c1ccc(N=Nc2c(NNc3ccc([N+](=O)[O-])cn3)cc(S(=O)(=O)O)c3ccccc23)nc1 , thank you.
Data returned: false

Data request: For COc1cc(CN(c2ccc(C)cc2)C2OC(=O)c3ccccc32)cc(OC)c1OC (stereo not drawn) , what call appears in the results of this test?
Data returned: false

---

System: HOP-62 NSCLC
run.description: NCI-60 one-dose screen, 48 h (100 = growth as untreated, 0 = no growth, -100 = all killed)
condition.info: 10 µM unless noted
The panel holds about 83,000 compounds, 20% with a hit somewhere; the sample as a whole holds those more often. Calls of active or inactive are those of the source. Rule for the calls: active = growth percent below 10; inactive = the rest.
Quick list: growth per entry.

molecule	target.or.test.system	quantity.measured	reading
COc1cc(CN(CCC(O)N2CCCC2=O)Cc2ccc3c(c2)OCO3)cc(OC)c1OC (stereo unspecified)	HOP-62 NSCLC	growth	103% (inactive)
COc1ccc2c(c1)OC1=C(C(=O)OC1)C2c1cc(OC)c2c(c1)OCCO2 (stereo unspecified)	HOP-62 NSCLC	growth	24.1% (inactive)
CCC(=O)NC1=C(Cl)C(=O)C(NC(=O)CC)=C(Cl)C1=O	HOP-62 NSCLC	growth	111% (inactive)
COc1ccccc1-[n+]1cc(-c2ccc(-c3ccccc3)cc2)n2c1CCCCC2	HOP-62 NSCLC	growth	12.6% (inactive)

Data request: Any idea what growth was measured for CN1C(=O)NC(Cc2c[nH]c3c(Cl)cccc23)C1=O (stereo unspecified) ?
Data returned: 107% (inactive)

Data request: Need growth of O=c1c2cc(Br)cc(Br)c2nc(-c2ccc(Cl)cc2)n1/N=C\c1ccccc1F , thanks.
Data returned: 27.4% (inactive)

Data request: Report growth for Cc1ccc(OC2=C(C#N)C(=N)N3C(=NN2)Sc2c(C)ccc(C)c23)cc1 please.
Data returned: 99.6% (inactive)

Data request: Item COc1ccc(C(=O)C(CN(C)C)c2ccc(OC)cc2)cc1 (stereo unspecified) has what recorded growth?
Data returned: 96% (inactive)

Data request: Could you tell me which growth is on file for C#CCO[C@H]1CC[C@H](OCC#C)[C@@H]2[C@H]1[C@H]1C[C@@H]3[C@@]4(C)CCC[C@@](C)(C(=O)OC)[C@@H]4CC[C@@]23C=C1C(C)C ?
Data returned: 77.5% (inactive)

Data request: Which growth value is on record for CCOC(=O)Cn1c(-c2nonc2NC(=O)c2ccccc2F)nc2ccccc21 ?
Data returned: 73.2% (inactive)

Data request: Query: growth; subject: CCOC(=O)c1ccc2c(c1)nc(-c1ccc(Cl)cc1)n2-c1cc(C(C)(C)C)[nH]n1
Data returned: 39.3% (inactive)

Data request: Entry NC(=O)c1ccc[n+](Cc2ccccc2)c1 has what growth?
Data returned: 127% (inactive)

Data request: Would you mind telling me what growth value was observed for O=C(O/C(=C/c1ccccc1)C(F)(F)F)c1ccccc1 ?
Data returned: 105% (inactive)
